molecular target: delF508-CFTR-HRP (Homo sapiens, UniProt P13569, DEL508-508); construct: expressed in transfected cells; assay: Measurement of delF508-CFTR-HRP surface expression in CFBE41o- cells (HRP luminescence); format: cell-based; settings: CFBE41o-, read-out: DelF508-CFTR-HRP Amax %;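 also: percent efficacy relative to a reference CFTR corrector compound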
Sequence (P13569 with tags, fused parts or gaps DEL508-508): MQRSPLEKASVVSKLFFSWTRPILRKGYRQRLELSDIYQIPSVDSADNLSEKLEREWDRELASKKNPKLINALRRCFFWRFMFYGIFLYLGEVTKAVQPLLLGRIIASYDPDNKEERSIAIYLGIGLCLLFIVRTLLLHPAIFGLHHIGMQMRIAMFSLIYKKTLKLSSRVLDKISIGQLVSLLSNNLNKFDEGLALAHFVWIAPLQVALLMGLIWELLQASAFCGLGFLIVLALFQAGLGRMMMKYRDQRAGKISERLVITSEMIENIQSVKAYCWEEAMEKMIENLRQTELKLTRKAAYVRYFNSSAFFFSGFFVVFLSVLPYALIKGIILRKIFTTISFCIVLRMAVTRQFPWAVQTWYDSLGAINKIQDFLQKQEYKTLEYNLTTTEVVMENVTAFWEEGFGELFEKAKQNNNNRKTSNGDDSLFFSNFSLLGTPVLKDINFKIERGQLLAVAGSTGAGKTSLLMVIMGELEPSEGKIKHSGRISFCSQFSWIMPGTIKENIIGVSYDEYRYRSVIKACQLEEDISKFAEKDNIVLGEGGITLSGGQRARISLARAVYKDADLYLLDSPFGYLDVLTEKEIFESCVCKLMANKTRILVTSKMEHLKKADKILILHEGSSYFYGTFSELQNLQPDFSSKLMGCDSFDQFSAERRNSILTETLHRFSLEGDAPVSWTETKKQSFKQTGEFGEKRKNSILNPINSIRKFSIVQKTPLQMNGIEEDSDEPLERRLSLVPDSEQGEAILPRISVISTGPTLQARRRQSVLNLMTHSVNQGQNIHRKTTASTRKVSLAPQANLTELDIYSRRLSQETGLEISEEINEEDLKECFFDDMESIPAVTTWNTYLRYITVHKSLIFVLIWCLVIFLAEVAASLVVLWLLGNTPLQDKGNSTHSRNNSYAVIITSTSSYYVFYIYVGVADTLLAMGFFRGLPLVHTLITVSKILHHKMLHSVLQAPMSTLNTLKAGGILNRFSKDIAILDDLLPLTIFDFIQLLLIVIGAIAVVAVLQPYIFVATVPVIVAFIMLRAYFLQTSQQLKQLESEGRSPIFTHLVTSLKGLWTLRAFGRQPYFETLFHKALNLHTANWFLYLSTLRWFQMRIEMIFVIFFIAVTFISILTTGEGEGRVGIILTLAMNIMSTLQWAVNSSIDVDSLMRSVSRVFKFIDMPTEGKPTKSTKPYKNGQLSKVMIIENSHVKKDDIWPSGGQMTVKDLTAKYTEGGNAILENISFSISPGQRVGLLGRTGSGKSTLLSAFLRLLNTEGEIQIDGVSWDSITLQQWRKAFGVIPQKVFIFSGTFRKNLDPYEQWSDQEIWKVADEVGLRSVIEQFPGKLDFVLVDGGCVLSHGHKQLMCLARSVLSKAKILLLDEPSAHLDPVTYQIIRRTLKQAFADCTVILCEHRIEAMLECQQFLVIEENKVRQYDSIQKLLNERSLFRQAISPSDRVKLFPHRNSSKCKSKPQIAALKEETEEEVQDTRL
Definition: the class of an entry is the range in low class = under 200%, middle class = from 200% up to 400%, high class = 400% and over that contains its Emax.

Exercise: read the entry Cc1ccc(C2CCCCC2)c(OC2(C(=O)NS(=O)(=O)c3cccc(N4CCOC[C@H]4C)n3)CC2)c1 [Example 2-26] and state which class it falls under. high class

Exercise: read the entry Cc1ccc(N2CCC(C)(C)CC2)c(OC2(C(=O)NS(=O)(=O)c3cccc(N)n3)CC2)c1 [Example 9-44] and state which class it falls under. middle class

Exercise: read the entry CC1(C)CCN(c2ccc(Cl)cc2OC2(C(=O)NS(=O)(=O)c3cccc(N)n3)CC2)CC1 [Example 9-45] and state which class it falls under. low class

Exercise: read the entry Cc1ccc(C2CC(F)(F)C2)c(OC2(C(=O)NS(=O)(=O)c3cccc(N4CC(C)(O)C4)n3)CC2)c1 [Example 4-3] and state which class it falls under. low class

Exercise: read the entry Cc1ccc(C2CCCCC2)c(OC2(C(=O)NS(=O)(=O)c3cccc(N4C[C@@H]5C[C@@H]5[C@H](N)C4)n3)CC2)c1 (relative stereo) [Example 2-44] and state which class it falls under. low class

Exercise: read the entry Cc1ccc([C@H]2CC[C@H](F)CC2)c(OC2(C(=O)NS(=O)(=O)c3cccc(N4CC(C)(O)C4)n3)CC2)c1 (single isomer, unassigned) [Example 4-1] and state which class it falls under. middle class

Exercise: read the entry Cc1ccc(C2CCCCC2)c(OC2(C(=O)NS(=O)(=O)c3cccc(N4CCO[C@H](C)C4)n3)CC2)c1 [Example 2-53] and state which class it falls under. high class

Exercise: read the entry Cc1ccc(OC2CCC3CCCCC3C2)c(OC2(C(=O)NS(=O)(=O)c3cccc(N4CC[C@H](O)C4)n3)CC2)c1 (some centres unmarked) [Example 6-9] and state which class it falls under. middle class

Exercise: read the entry Cc1ccc(C2CCCCC2)c(OC2(C(=O)NS(=O)(=O)c3cccc(N4CCCC(NC(=O)OC(C)(C)C)C4)n3)CC2)c1 (centres unmarked) [Example 2-12] and state which class it falls under. high class

Exercise: read the entry COC(=O)C1(C)CCN(c2cccc(S(=O)(=O)NC(=O)C3(Oc4cc(C)ccc4C4CCCCC4)CC3)n2)CC1 [Example 2-3] and state which class it falls under. middle class

Exercise: read the entry Cc1ccc(C2CCCCC2)c(OC2(C(=O)NS(=O)(=O)c3cccc(N4CCN(C(=O)OC(C)(C)C)CC4)n3)CC2)c1 [Example 2-34] and state which class it falls under. middle class

Exercise: read the entry Cc1ccc(C2(C(F)(F)F)CC2)c(OC2(C(=O)NS(=O)(=O)c3cccc(N)n3)CCCC2)c1 [Example 1-8] and state which class it falls under. low class

Exercise: read the entry Cc1ccc(C2CCCCC2)c(OC2(C(=O)NS(=O)(=O)c3cccc(NC[C@@H](C)O)n3)CC2)c1 [Example 2-46] and state which class it falls under. high class

Exercise: read the entry O=C(NS(=O)(=O)c1cccc(N2CC[C@H](O)C2)n1)C1(Oc2cc(Cl)ccc2N2CCC3(CCC3)CC2)CC1 [Example 9-12] and state which class it falls under. high class

Where do the numbers come from? From patent US20220033407A1.
